# IC50 values compiled below
Tested on: Pfeiffer cells
procedure_text: CTG cell viability assay (CellTiter-Glo)
Assay type: cell-based
assay_setup: Homo sapiens, 240 h; Pfeiffer cells, 10 days with compound, CellTiter-Glo; read-out: Cell Proliferation IC50
endpoint_name: IC50

{"molecule": "CN(C)[C@H]1CN(C2CCc3cccc(F)c32)C[C@@H]1C1CCN(c2ncc(C(N)=O)s2)CC1 (mixture of isomers)", "endpoint_name": "IC50", "meas_value": "216 nM"}
{"molecule": "CN(C)[C@H]1CN(C2CCc3cc(F)cc(F)c32)C[C@@H]1c1cn(C)c2ccccc12 (mixture of isomers)", "endpoint_name": "IC50", "meas_value": "1720 nM"}
{"molecule": "CN(C)C(=O)N1CCN(C(=O)c2cccc3c([C@H]4CN(C5CCc6cccc(F)c65)C[C@@H]4N(C)C)cn(C)c23)CC1 (mixture of isomers)", "endpoint_name": "IC50", "meas_value": "335 nM"}
{"molecule": "CN(C)[C@@H]1CN(C2CCc3cccc(F)c32)C[C@H]1c1ccc(N2CCN(C(=O)CS(C)(=O)=O)CC2)nc1 (mixture of isomers)", "endpoint_name": "IC50", "meas_value": "354 nM"}
{"molecule": "CN(C)[C@@H]1CN(C2CCc3cccc(F)c32)C[C@H]1c1ccc(-c2cnn(CC(=O)N3CC(F)C3)c2)nc1 (mixture of isomers)", "endpoint_name": "IC50", "meas_value": "419 nM"}
{"molecule": "CN(C)[C@H]1CN(C2CCc3cccc(F)c32)C[C@@H]1c1ccc(N2CCN(C3CC3)CC2)cc1 (mixture of isomers)", "endpoint_name": "IC50", "meas_value": "166 nM"}
{"molecule": "CN(C)[C@H]1CN(C2CCc3cccc(F)c32)C[C@@H]1c1cn(C)c2c(C(=O)N3CCN(S(=O)(=O)c4cncn4C)CC3)cccc12 (mixture of isomers)", "endpoint_name": "IC50", "meas_value": "115 nM"}
{"molecule": "CN(C)[C@@H]1CN(C2CCc3cccc(F)c32)C[C@H]1c1ccc(Br)cc1 (mixture of isomers)", "endpoint_name": "IC50", "meas_value": "3300 nM"}
{"molecule": "CN(C)[C@H]1CN(C2CCc3cccc(F)c32)C[C@@H]1c1cn(C)c2c(C(=O)N3CCC[C@H]3CO)cccc12 (mixture of isomers)", "endpoint_name": "IC50", "meas_value": "99.6 nM"}
{"molecule": "CN(C)[C@H]1CN(C2CCc3cccc(F)c32)C[C@@H]1c1cn(C)c2c(C(=O)N3CC(O)C3)cccc12 (stereo partly shown) [Example 105]", "endpoint_name": "IC50", "meas_value": "39 nM"}
{"molecule": "CN(C)[C@H]1CN(C2CCc3cccc(F)c32)C[C@@H]1c1ccc(S(N)(=O)=O)cc1 (mixture of isomers)", "endpoint_name": "IC50", "meas_value": "1320 nM"}
{"molecule": "CN(C)[C@@H]1CN(C2CCc3cccc(F)c32)C[C@H]1c1ccc(Cl)cc1 (mixture of isomers)", "endpoint_name": "IC50", "meas_value": "2340 nM"}
{"molecule": "CN(C)C1CN(C2CCc3cccc(F)c32)CC1c1cn(C)c2cc(C(=O)N3CCC(O)C3)ccc12 (racemic)", "endpoint_name": "IC50", "meas_value": "171 nM"}
{"molecule": "CN(C)[C@H]1CN(C2CCc3cccc(F)c32)C[C@@H]1C1CCN(c2ccc(C(N)=O)cc2)CC1 (mixture of isomers)", "endpoint_name": "IC50", "meas_value": "129 nM"}
{"molecule": "COC(=O)c1ccc([C@@H]2CN(C3CCc4cccc(F)c43)C[C@H]2N(C)C)cc1 (mixture of isomers)", "endpoint_name": "IC50", "meas_value": "422 nM"}
{"molecule": "CN(C)[C@H]1CN(C2CCc3cccc(F)c32)C[C@@H]1c1cn(C)c2c(C(=O)NC3CCS(=O)(=O)C3)cccc12 (mixture of isomers)", "endpoint_name": "IC50", "meas_value": "224 nM"}
{"molecule": "Cc1n[nH]c(C)c1S(=O)(=O)N1CCN(C(=O)c2cccc3c([C@H]4CN(C5CCc6cccc(F)c65)C[C@@H]4N(C)C)cn(C)c23)CC1 (mixture of isomers)", "endpoint_name": "IC50", "meas_value": "1520 nM"}
{"molecule": "CN(C)[C@H]1CN([C@H]2C[C@H](F)c3cccc(F)c32)C[C@@H]1c1ccc(S(C)(=O)=O)cc1 (mixture of isomers)", "endpoint_name": "IC50", "meas_value": "2810 nM"}
{"molecule": "Cc1cc([C@H]2CN(C3CCc4cccc(F)c43)C[C@@H]2N(C)C)ccc1N1CCN(C)C(=O)C1 (mixture of isomers)", "endpoint_name": "IC50", "meas_value": "314 nM"}
{"molecule": "CN(C)[C@H]1CN(C2CCc3cccc(F)c32)C[C@@H]1c1cn(C)c2c(C(=O)N3CCNCC3)cccc12 (mixture of isomers)", "endpoint_name": "IC50", "meas_value": "247 nM"}
{"molecule": "CN(C)[C@H]1CN(C2CCc3cccc(F)c32)C[C@@H]1c1cn(C)c2c(C(=O)N3CCC[C@H]3C(N)=O)cccc12 (mixture of isomers)", "endpoint_name": "IC50", "meas_value": "111 nM"}
{"molecule": "CN1CCN(c2ccc([C@H]3CN(C4CCc5cccc(F)c54)C[C@@H]3N(C)C)cc2)CC1=O (mixture of isomers)", "endpoint_name": "IC50", "meas_value": "145 nM"}
{"molecule": "CN(C)[C@@H]1CN(C2CCc3cccc(F)c32)C[C@H]1c1ccc(N2CCN(c3ccccn3)CC2)cc1 (mixture of isomers)", "endpoint_name": "IC50", "meas_value": "1760 nM"}
{"molecule": "CN(C)[C@H]1CN(C2CCc3cccc(F)c32)C[C@@H]1C1CCN(c2ccccc2)CC1 (mixture of isomers)", "endpoint_name": "IC50", "meas_value": "2900 nM"}
{"molecule": "CN(C)[C@H]1CN(C2CCc3cccc(F)c32)C[C@@H]1C1CCN(c2ccc(C(N)=O)nn2)CC1 (mixture of isomers)", "endpoint_name": "IC50", "meas_value": "286 nM"}
{"molecule": "CC(=O)N1CCN(c2ccc([C@H]3CN(C4CCc5cccc(F)c54)C[C@@H]3N(C)C)cc2C)CC1 (mixture of isomers)", "endpoint_name": "IC50", "meas_value": "302 nM"}
{"molecule": "CNC(=O)Cn1cc(-c2ccc([C@H]3CN(C4CCc5cccc(F)c54)C[C@@H]3N(C)C)cc2)cn1 (mixture of isomers)", "endpoint_name": "IC50", "meas_value": "121 nM"}
{"molecule": "CN(C)C(=O)CN1CCN(c2ccc([C@@H]3CN(C4CCc5cccc(F)c54)C[C@H]3N(C)C)cn2)CC1 (mixture of isomers)", "endpoint_name": "IC50", "meas_value": "535 nM"}
